src = ChEMBL document CHEMBL4689842

Documented Growth Rate across a set of molecules
Tested on: U2OS
Assay: Incucyte cell viability with U2OS; further: filed as whole numbers so only -1 and 0 and 1 occur
Format: toxicity, cell-based
Conditions: human, 24 h, 10 µM, compound concentration 10 uM, replicate number 1, timepoint 24 hours
Output spec: single numeric token, no unit.

Worked examples, 5 molecules total:
Molecule: COc1cccc(-c2c(C)n(Cc3c(F)cccc3C(F)(F)F)c(=O)n(C[C@H](NCCCC(=O)[O-])c3ccccc3)c2=O)c1F.[Na+] [ELAGOLIX SODIUM]
Growth Rate: 0

Molecule: Cc1cc2c(cc1-c1cc(/C=C/C(=O)O)ccc1O)C(C)(C)CCC2(C)C
Growth Rate: 1

Molecule: CCCCC#Cc1nc(NC)c2ncn([C@@H]3O[C@H](CO)[C@@H](O)[C@H]3O)c2n1
Growth Rate: 1

Molecule: CCOc1ccn(-c2ccc(F)cc2)c(=O)c1C(=O)Nc1ccc(Oc2ccnc(N)c2Cl)c(F)c1
Growth Rate: 0

Molecule: CCCOc1ccn2c(C(C)=O)cc(-c3cccc(OC)c3)c2c1
Growth Rate: 1

### Prompt Query (molecule): "Cc1ccc(S(=O)(=O)NC2c3ccccc3Oc3ccccc32)cc1" ; field requested: Growth Rate
### Response 1

### Prompt What about this molecule? CCN1CCC[C@H]1CNC(=O)c1c(OC)ccc(Br)c1OC [REMOXIPRIDE]
### Response 0

### Prompt What about this molecule? "COc1cc(C#N)ccc1S(=O)(=O)Nc1ccc2c(c1)cc(C)c(=O)n2C"
### Response 0

### Prompt What about this molecule? COc1cccc(CNC(=O)c2nc3scc(COCc4ccc(C(=O)O)cc4)c3c(=O)[nH]2)c1 [T-26c]
### Response 1

----------
Test system: Fibroblast
Assay: Multiplex assay against human fibroblast
Assay type: toxicity, cell-based
Settings: 12 h, 10 µM, compound concentration 10 uM, replicate 1
Documented Population Fragmented Nuclei (%) across a set of compounds
Please reply with the bare figure in % and do not write the unit itself.

Cpd smiles: Cc1ccc(S(=O)(=O)NC2c3ccccc3Oc3ccccc32)cc1
System tested: Fibroblast
Quantity name: Population Fragmented Nuclei (%)
Units symbol: %
Observed value: 41
--
Cpd smiles: CCCCN(CC)c1nc(C)nc2c1c(C)cn2-c1c(C)cc(C)cc1C.Cl
System tested: Fibroblast
Quantity name: Population Fragmented Nuclei (%)
Units symbol: %
Observed value: 30
--
Cpd smiles: Cc1c(Nc2ccc(S(=O)(=O)N3CCN(C)CC3)cc2F)nc2ccc(Nc3cnn(C4CC4)c3)cn2c1=O
System tested: Fibroblast
Quantity name: Population Fragmented Nuclei (%)
Units symbol: %
Observed value: 27
--
Cpd smiles: Oc1cccc(-c2nc(N3CCOCC3)c3oc4ncccc4c3n2)c1
System tested: Fibroblast
Quantity name: Population Fragmented Nuclei (%)
Units symbol: %
Observed value: 34

### Prompt Query (compound): "CC(C)[C@H](CO)Nc1nc(Nc2cccc(Cl)c2)c2ncn(C(C)C)c2n1" ; field requested: Population Fragmented Nuclei (%)
### Response 24

----------
Tested on: U2OS
Assay: Multiplex assay against U2OS
Type: toxicity, cell-based
Settings: human, 12 h, 1 µM, compound concentration 1 uM, replicate 2
Quantity name: Population Mitochondria Different-Phenotype (%)
Please reply with the bare figure in % and do not write the unit itself.

Molecule: Cc1c(Nc2ccc(S(=O)(=O)N3CCN(C)CC3)cc2F)nc2ccc(Nc3cnn(C4CC4)c3)cn2c1=O
Observed value: 18

Molecule: Cc1ccc(NC(=O)Nc2cc(C(F)(F)F)ccc2F)cc1Nc1ccc2c(c1)NC(=O)/C2=C\c1ccc[nH]1
Observed value: 18

Molecule: CCCCN(CC)c1nc(C)nc2c1c(C)cn2-c1c(C)cc(C)cc1C.Cl
Observed value: 8

Molecule: CCCc1cc(C)[nH]c(=O)c1CNC(=O)c1cc(-c2ccc(N3CCN(C(C)C)CC3)nc2)cc2c1cnn2C(C)C
Observed value: 91

Molecule: CC(Cc1ccc(O)c(O)c1)C(C)Cc1ccc(O)c(O)c1 (centres undefined) [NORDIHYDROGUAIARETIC ACID]
Observed value: 1

### Prompt // lookup Population Mitochondria Different-Phenotype (%) | system=U2OS | key= CCCCCNC(=N)N/N=C/c1c[nH]c2ccc(OC)cc12.O=C(O)/C=C\C(=O)O [TEGASEROD MALEATE]
### Response 22
